Test system: PDC KRAS tumor spheroids with HUVEC/MSC, viability;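 note: spheroids exposed to compounds for seven days before readout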
Experiment: Anticancer human tumor 349418-098-R-PDC patient-derived lung adenocarcinoma cell line growth inhibition [KRAS2]; active = viability on the fitted dose curve at most 10% of control; inactive = the rest
Conditions: compound 0.316 µM
Reply using exactly one outcome from active, inactive

# COMPOUND, CLASSIFICATION
records = [
    ("CC1(C)CCC(CN2CCN(c3ccc(C(=O)NS(=O)(=O)c4ccc(NCC5CCOCC5)c([N+](=O)[O-])c4)c(Oc4cnc5[nH]ccc5c4)c3)CC2)=C(c2ccc(Cl)cc2)C1", "inactive"),
    ("COc1cc(Nc2ncc3c(n2)-c2ccc(Cl)cc2C(c2c(F)cccc2OC)=NC3)ccc1C(=O)O", "inactive"),
    ("CC(C)NCC(C(=O)N1CCN(c2ncnc3c2C(C)CC3O)CC1)c1ccc(Cl)cc1 (centres undefined)", "inactive"),
]

Next, consider the following compound.
(Q) # lookup: test call for CC1COCCN1c1cc(-c2ccnn2C)c2ccnc(-c3ccn[nH]3)c2n1 (centres undefined)
(A) active
